Here the recorded melting point is given for each entry.

[
  {
    "chem smiles": "O=C(N1CCN(C2c3ccccc3-c3ccccc32)CC1)n1nnc2ncccc21",
    "melting point": "170 to 172 °C (dec.)"
  }
]

For the compound `O=C(N1CCN(C(c2ccccc2)c2ccccc2)CC1)n1nnc2ncc(Cl)cc21` , give its reported melting point.
173 to 175 °C (dec.)

For the compound `O=C(N1CCN(C2c3ccccc3CCc3ccccc32)CC1)n1nnc2ncccc21` , give its reported melting point.
190 to 194 °C (dec.)

For the compound `O=C(N1CCN(C(c2ccc(F)cc2)c2ccc(F)cc2)CC1)n1nnc2ncccc21` , give its reported melting point.
151 to 153 °C (dec.)

For the compound `O=C(N1CCN(C(c2ccccc2)c2ccccc2)CC1)n1nnc2ncccc21` , give its reported melting point.
146 to 148 °C (dec.)

For the compound `O=C(N1CCN(C(c2ccc(Cl)cc2)c2ccc(Cl)cc2)CC1)n1nnc2ncccc21` , give its reported melting point.
163 to 165 °C (dec.)

For the compound `O=C(N1CCN(C(c2ccc(F)cc2)c2ccc(F)cc2)CC1)n1nnc2ncc(Cl)cc21` , give its reported melting point.
167 to 169 °C (dec.)

Data credit: patent US7868007B2
